Values compiled from patent US20130029928A1.

- protocol.description: Phase I study CXR1002-001: plasma pharmacokinetics (LC-MS/MS)
- Assay type: in vivo, human
- experimental.parameters: human, plasma, oral, 200 mg, Patient 010 Dose 200 mg; 864 hr (Day 37); read-out: Concentration
experimental.readout: concentration at 864 h (µM)
Hi! Could you send only the number? It should be in µM, unit omitted.

Fill in: concentration at 864 h of `O=C(O)C(F)(F)C(F)(F)C(F)(F)C(F)(F)C(F)(F)C(F)(F)C(F)(F)F` is ___ 221

###

- protocol.description: Phase I study CXR1002-001: plasma pharmacokinetics (LC-MS/MS)
- Assay type: in vivo, human
- experimental.parameters: human, plasma, oral, 1000 mg, Patient 040, 1000 mg, person, plasma, 507 hr; read-out: Concentration
experimental.readout: concentration at 507 h (µM)
Your answer should be a plain number; it is taken to be in µM.

// returns reported concentration at 507 h for input `O=C(O)C(F)(F)C(F)(F)C(F)(F)C(F)(F)C(F)(F)C(F)(F)C(F)(F)F` 554

###

- protocol.description: Phase I study CXR1002-001: plasma pharmacokinetics (LC-MS/MS)
- Type: in vivo, human
- experimental.parameters: human, plasma, oral, 100 mg, Patient 005 Dose 100 mg; 24 hr (Day 2); read-out: Concentration
experimental.readout: concentration at 24 h
Kindly write the number and append the unit.

Given the compound O=C(O)C(F)(F)C(F)(F)C(F)(F)C(F)(F)C(F)(F)C(F)(F)C(F)(F)F [CXR1002] , what is its reported concentration at 24 h? 19.9 µM

###

- protocol.description: Phase I study CXR1002-001: plasma pharmacokinetics (LC-MS/MS)
- Format: in vivo, human
- experimental.parameters: human, plasma, oral, 1000 mg, Patient 040, 1000 mg, person, plasma, 172 hr; read-out: Concentration
experimental.readout: concentration at 172 h (µM)
Response body: numeric value in µM, unit text excluded.

# concentration at 172 h lookup, item O=C(O)C(F)(F)C(F)(F)C(F)(F)C(F)(F)C(F)(F)C(F)(F)C(F)(F)F [CXR1002] 326

###

- protocol.description: Phase I study CXR1002-001: plasma pharmacokinetics (LC-MS/MS)
- Assay type: in vivo, human
- experimental.parameters: human, plasma, po, 1200 mg, Patient 037, 1200 mg weekly oral dose, Time 507 hr; read-out: Concentration (plasma level)
experimental.readout: concentration at 507 h (µM)
Lab book: enter the figure in µM, no units written.

Looking for the measured concentration at 507 h of O=C(O)C(F)(F)C(F)(F)C(F)(F)C(F)(F)C(F)(F)C(F)(F)C(F)(F)F [CXR1002] , can you help? 1220

###

- protocol.description: Phase I study CXR1002-001: plasma pharmacokinetics (LC-MS/MS)
- Assay type: in vivo, human
- experimental.parameters: human, plasma, oral, 450 mg, Patient 017 Dose 450 mg; 3 hr; read-out: Concentration
experimental.readout: concentration at 3 h (µM)
Please give a number only; it is taken to be in µM.

Entry O=C(O)C(F)(F)C(F)(F)C(F)(F)C(F)(F)C(F)(F)C(F)(F)C(F)(F)F [CXR1002] has what concentration at 3 h? 136

###

- protocol.description: Phase I study CXR1002-001: plasma pharmacokinetics (LC-MS/MS)
- Type: in vivo, human
- experimental.parameters: human, plasma, oral, 100 mg, Patient 007 Dose 100 mg; 508 hr; read-out: Concentration
experimental.readout: concentration at 508 hr (µM)
Just the number please, in µM, no unit attached.

Looking for the measured concentration at 508 hr of `O=C(O)C(F)(F)C(F)(F)C(F)(F)C(F)(F)C(F)(F)C(F)(F)C(F)(F)F` , can you help? 73

###

- protocol.description: Phase I study CXR1002-001: plasma pharmacokinetics (LC-MS/MS)
- Format: in vivo, human
- experimental.parameters: human, plasma, oral, 300 mg, Patient 012 Dose 300 mg; 675 hr; read-out: Concentration
experimental.readout: concentration at 675 h (µM)
Please state the figure in µM; there is no need to write the unit.

Which concentration at 675 h reading was recorded for the compound `O=C(O)C(F)(F)C(F)(F)C(F)(F)C(F)(F)C(F)(F)C(F)(F)C(F)(F)F` ? 373

###

- protocol.description: Phase I study CXR1002-001: plasma pharmacokinetics (LC-MS/MS)
- Type: in vivo, human
- experimental.parameters: human, plasma, oral, 600 mg, Patient 020, 600 mg, person, plasma, 2 hr; read-out: Concentration
experimental.readout: concentration at 2 h (µM)
Respond with the bare value in µM.

Which concentration at 2 h is listed for `O=C(O)C(F)(F)C(F)(F)C(F)(F)C(F)(F)C(F)(F)C(F)(F)C(F)(F)F` ? 208

###

- protocol.description: Phase I study CXR1002-001: plasma pharmacokinetics (LC-MS/MS)
- Format: in vivo, human
- experimental.parameters: human, plasma, oral, 100 mg, Patient 005 Dose 100 mg; 675 hr; read-out: Concentration
experimental.readout: concentration at 675 h (µM)
Give the quantity in µM, number only.

Given the compound O=C(O)C(F)(F)C(F)(F)C(F)(F)C(F)(F)C(F)(F)C(F)(F)C(F)(F)F [CXR1002] , what is its reported concentration at 675 h? 101

###

- protocol.description: Phase I study CXR1002-001: plasma pharmacokinetics (LC-MS/MS)
- Format: in vivo, human
- experimental.parameters: human, plasma, oral, 300 mg, Patient 012 Dose 300 mg; 192 hr (Day 9); read-out: Concentration
experimental.readout: concentration at 192 h (µM)
Give just the number in µM; leave the unit off.

What value of measured concentration at 192 h is listed for `O=C(O)C(F)(F)C(F)(F)C(F)(F)C(F)(F)C(F)(F)C(F)(F)C(F)(F)F` ? 152

###

- protocol.description: Phase I study CXR1002-001: plasma pharmacokinetics (LC-MS/MS)
- Assay type: in vivo, human
- experimental.parameters: human, plasma, po, 1200 mg, Patient 038, 1200 mg weekly oral dose, Time 675 hr; read-out: Concentration (plasma level)
experimental.readout: concentration at 675 h (µM)
Please state the figure in µM; there is no need to write the unit.

For the molecule shown here, `O=C(O)C(F)(F)C(F)(F)C(F)(F)C(F)(F)C(F)(F)C(F)(F)C(F)(F)F` , give the reported concentration at 675 h. 885

###

- protocol.description: Phase I study CXR1002-001: plasma pharmacokinetics (LC-MS/MS)
- Assay type: in vivo, human
- experimental.parameters: human, plasma, oral, 300 mg, Patient 014 Dose 300 mg; 2 hr; read-out: Concentration
- Description: PK samples, PD (fasting) samples, blood glucose, and blood triglyceride samples, were taken over a 6-week period. Dose limiting toxicity (DLT) will be based on the toxicity assessments over the first 3-week period of the repeat dosing schedule. […]
experimental.readout: concentration at 2 h (µM)
Answer in µM, number only, no unit symbol.

What measured concentration at 2 h goes with `O=C(O)C(F)(F)C(F)(F)C(F)(F)C(F)(F)C(F)(F)C(F)(F)C(F)(F)F` ? 131

###

- protocol.description: Phase I study CXR1002-001: plasma pharmacokinetics (LC-MS/MS)
- Assay type: in vivo, human
- experimental.parameters: human, plasma, oral, 300 mg, Patient 011 Dose 300 mg; 508 hr; read-out: Concentration
experimental.readout: concentration at 508 h (µM)
Use µM as the unit, but write only the number.

Can you look up the measured concentration at 508 h of O=C(O)C(F)(F)C(F)(F)C(F)(F)C(F)(F)C(F)(F)C(F)(F)C(F)(F)F [CXR1002] for me? 244

###

- protocol.description: Phase I study CXR1002-001: plasma pharmacokinetics (LC-MS/MS)
- Type: in vivo, human
- experimental.parameters: human, plasma, oral, 200 mg, Patient 009 Dose 200 mg; 170 hr; read-out: Concentration
experimental.readout: concentration at 170 h (µM)
Kindly provide the numeric value in µM only, without the unit symbol.

concentration at 170 h for `O=C(O)C(F)(F)C(F)(F)C(F)(F)C(F)(F)C(F)(F)C(F)(F)C(F)(F)F` ? 149

###

- protocol.description: Phase I study CXR1002-001: plasma pharmacokinetics (LC-MS/MS)
- Type: in vivo, human
- experimental.parameters: human, plasma, oral, 600 mg, Patient 024, 600 mg, person, plasma, 674 hr; read-out: Concentration
- Source text: PK samples, PD (fasting) samples, blood glucose, and blood triglyceride samples, were taken over a 6-week period. Dose limiting toxicity (DLT) will be based on the toxicity assessments over the first 3-week period of the repeat dosing schedule. […]
experimental.readout: concentration at 674 h (µM)
All answers are understood in µM, so give the number only.

Sample O=C(O)C(F)(F)C(F)(F)C(F)(F)C(F)(F)C(F)(F)C(F)(F)C(F)(F)F [CXR1002] — what was its concentration at 674 h? 694
